// provenance: PubChem BioAssay

# EXPERIMENT_SUMMARY: yeast growth modulation, basal conditions, primary screen, YJM789 clinical isolate, OD600, 24 h (AID 1089);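 note: growth of clinical yeast isolate S. cerevisiae YJM 789 seeded 1000 cells per well; test concentration not given here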
# TEST_CONDITIONS: S. cerevisiae YJM789 growth, higher = more signal, called active from +8 up or from −8 down
The source made the active and inactive calls.
ENDPOINT: z-score

COMPOUND | ENDPOINT | MEASURED
COc1ccc(COC(=O)NN=C2C[C@@H](O)[C@@H](O)[C@@H]3[C@@H]4C(=O)N(Cc5ccc6c(c5)OCO6)C(=O)[C@@H]4CC[C@H]23)cc1 | z-score | 1.13 (inactive)
C[C@H]1C=CCC(=O)OC[C@H](C)C(=O)N2CCC[C@H]2C(=O)OC1 | z-score | 0.94 (inactive)
CCOC(=O)[C@H](CC(C)C)NC(=O)CCC1CC(OC(=O)NCc2ccc3c(c2)OCO3)CC2(CCCC(COC(=O)NCCc3ccc(Cl)cc3)O2)O1 (some centres not stated) | z-score | -1.06 (inactive)
OC[C@H]1O[C@H](C#Cc2ccccc2)C=C[C@@H]1O | z-score | 0.643 (inactive)
CC(C)[C@H](NC(=O)OC(C)(C)C)[C@@H](O)CC(=O)C(C)(C)C | z-score | 0.24 (inactive)
O=C1[C@H]2CCn3c(=O)n(-c4ccccc4)c(=O)n3[C@H]2[C@H](O)[C@@H]2O[C@H]12 | z-score | 0.689 (inactive)
COc1ccc(COC(=O)NN=C2C[C@@H](O)[C@@H](O)[C@@H]3[C@@H]4C(=O)N(C[C@@H]5CCCO5)C(=O)[C@@H]4CC[C@@H]23)cc1 | z-score | 0.137 (inactive)

----------
# System: Chordin-like protein 2 (CHRDL2)
# EXPERIMENT_SUMMARY: CHRDL2 small-molecule binders, primary screen, biochemical, small-molecule microarray, 635 nm fluorescence (AID 1126);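 note: printed compound slides probed with Chrdl2 protein at 4 µg/mL for 1 h at 4 C; score merges 667 nm emission intensity with signal to noise over three replicate slides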
# TEST_CONDITIONS: small-molecule microarray binding, fluorescence 635 nm; higher = more signal
Returns one of 1 or -1; 1 when composite z-score is >= 0.3.

COMPOUND | MEASUREMENT_TARGET | ASSIGNED_LABEL
C#CCCCON=C1C[C@@H](O)[C@@H](O)[C@@H]2[C@@H]3C(=O)N(C[C@@H]4CCCO4)C(=O)[C@@H]3CC[C@@H]12 | Chordin-like protein 2 (CHRDL2) | -1
CCCNC(=O)OC[C@H]1O[C@H](CCON=C[C@@H](NS(=O)(=O)c2ccc(C)cc2)[C@H](C)C=CCC(=O)OC)C=C[C@@H]1Oc1ccc(OC)cc1 | Chordin-like protein 2 (CHRDL2) | -1
CCOC(=O)[C@H](CC(C)C)NC(=O)CCC1CC(OC(=O)NCc2ccc3c(c2)OCO3)CC2(CCCC(COC(=O)NCCC(C)C)O2)O1 (some centres undefined) | Chordin-like protein 2 (CHRDL2) | -1
CCc1cc2c(nc1CC)CCN(CCC(C)=NO[C@@H]1O[C@H](COC(C)=O)[C@@H](OC(C)=O)[C@H](OC(C)=O)[C@H]1OC(C)=O)C2 | Chordin-like protein 2 (CHRDL2) | 1
CCN1C(=O)[C@H]2[C@H]3[C@H](O)[C@H](O)CC(=NO[C@@H](C)c4cc(-c5c(C)cc(C)cc5C)no4)[C@@H]3CC[C@H]2C1=O | Chordin-like protein 2 (CHRDL2) | 1
CC(C)(C)N1C(=O)[C@H]2[C@H]3[C@H](O)[C@H](O)CC(=NOC[C@@H](O)COCc4ccco4)[C@H]3CC[C@H]2C1=O | Chordin-like protein 2 (CHRDL2) | 1
O=C(NN=C1C[C@@H](O)[C@@H](O)[C@@H]2[C@@H]3C(=O)N(c4ccc(F)cc4F)C(=O)[C@@H]3CC[C@H]12)OCc1ccccc1 | Chordin-like protein 2 (CHRDL2) | -1
C[C@H]1CC[C@H]2C(=O)N[C@H](Cc3ccccc3)C(=O)N2[C@@H]1c1ccccc1 | Chordin-like protein 2 (CHRDL2) | 1
C[C@]12CCC3c4ccc(OCC5CO5)cc4CCC3C1CC[C@@H]2O (some centres undefined) | Chordin-like protein 2 (CHRDL2) | -1
